Tested on: Pseudomonas aeruginosa
Experiment: Antimicrobial activity against Pseudomonas aeruginosa
Assay type: functional, organism-based
value_type: IC50 (µg/mL)
Give bare numbers, in µg/mL.

I'm hoping you can list IC50 for every compound here, please.
1. CCC(C)CCCCC(=O)N[C@@H](CCNC=O)C(=O)N[C@H](C(=O)N[C@@H](CCNC=O)C(=O)N[C@H]1CCNC(=O)[C@H]([C@@H](C)O)NC(=O)[C@H](CCN)NC(=O)[C@H](CCNC=O)NC(=O)[C@H](CC(C)C)NC(=O)[C@@H](Cc2ccccc2)NC(=O)[C@H](CCN)NC1=O)[C@@H](C)O (some centres not stated)
2. CCC(C)CCCCC(=O)N[C@@H](CCNC=O)C(=O)N[C@H](C(=O)N[C@@H](CCNC=O)C(=O)N[C@H]1CCNC(=O)[C@H]([C@@H](C)O)NC(=O)[C@H](CCNC=O)NC(=O)[C@H](CCNC=O)NC(=O)[C@H](CC(C)C)NC(=O)[C@@H](Cc2ccccc2)NC(=O)[C@H](CCNC=O)NC1=O)[C@@H](C)O (some centres not stated)

[A]
[6.1, 60]

* * *

Kindly state MIC for each of the entries shown.
System: Escherichia coli
Assay: Antimicrobial activity against Escherichia coli
Type: functional
Where a SMILES comes first, the peptide text is derived from it. Bridges are numbered along the chain shown (N, C = ends). [ ]: non-standard residue; d: D form. The star is where a group is joined. Octanoyl = CCCCCCCC(=O)*; Dab = NCC[C@H](N)C(=O)O
Answers are plain numbers, in µM.

In the examples that follow, each entry is paired with its recorded MIC.
- CCCCCCCC(=O)N[C@@H](CCN)C(=O)N[C@H](C(=O)N[C@@H](CCN)C(=O)N[C@H]1CCNC(=O)[C@H]([C@@H](C)O)NC(=O)[C@H](CCN)NC(=O)[C@H](CCN)NC(=O)[C@H](CC(C)C)NC(=O)C(Cc2c[nH]c3ccccc23)NC(=O)[C@H](CCN)NC1=O)[C@@H](C)O (stereo in doubt): 2
- CCCC1CCC(C(=O)N[C@@H](CCN)C(=O)N[C@H](C(=O)N[C@@H](CCN)C(=O)N[C@H]2CCNC(=O)[C@H]([C@@H](C)O)NC(=O)[C@H](CCN)NC(=O)[C@H](CCN)NC(=O)[C@H](CC(C)C)NC(=O)[C@@H](Cc3ccccc3)NC(=O)[C@H](CCN)NC2=O)[C@@H](C)O)CC1 (some centres not stated): 4
- CCCCCCCC(=O)N[C@@H](CCN)C(=O)N[C@H](C(=O)N[C@@H](CCN)C(=O)N[C@H]1CCNC(=O)[C@H]([C@@H](C)O)NC(=O)[C@H](CCN)NC(=O)[C@H](CCN)NC(=O)CNC(=O)[C@@H](Cc2ccccc2)NC(=O)[C@H](CCN)NC1=O)[C@@H](C)O: 1
- CCCCCCCC(=O)N[C@@H](CCN)C(=O)N[C@H](C(=O)N[C@@H](CCN)C(=O)N[C@H]1CCNC(=O)[C@H](C)NC(=O)[C@H](CCN)NC(=O)[C@H](CCN)NC(=O)[C@H](CC(C)C)NC(=O)[C@@H](Cc2ccccc2)NC(=O)[C@H](CCN)NC1=O)[C@@H](C)O (Octanoyl-[Dab]T[Dab][Dab][Dab][dF]L[Dab][Dab]A; lactam 4-C): 2

Now take the following compound into account.
[Q] Recall the recorded MIC for CCCCCCCC(=O)N[C@@H](CCN)C(=O)N[C@H](C(=O)N[C@@H](CCN)C(=O)N[C@H]1CCNC(=O)[C@H]([C@@H](C)O)NC(=O)[C@H](CCN)NC(=O)[C@H](CCN)NC(=O)[C@H](CC(C)C)NC(=O)[C@@H](C)NC(=O)[C@H](CCN)NC1=O)[C@@H](C)O with Escherichia coli and state it.
[A] 1
